System under test: human ether-à-go-go-related gene (hERG) potassium channel (human);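 also: peak tail current of the secondary pulse compared with the same well before compound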
Sequence (Q12809 whole entry, looked up): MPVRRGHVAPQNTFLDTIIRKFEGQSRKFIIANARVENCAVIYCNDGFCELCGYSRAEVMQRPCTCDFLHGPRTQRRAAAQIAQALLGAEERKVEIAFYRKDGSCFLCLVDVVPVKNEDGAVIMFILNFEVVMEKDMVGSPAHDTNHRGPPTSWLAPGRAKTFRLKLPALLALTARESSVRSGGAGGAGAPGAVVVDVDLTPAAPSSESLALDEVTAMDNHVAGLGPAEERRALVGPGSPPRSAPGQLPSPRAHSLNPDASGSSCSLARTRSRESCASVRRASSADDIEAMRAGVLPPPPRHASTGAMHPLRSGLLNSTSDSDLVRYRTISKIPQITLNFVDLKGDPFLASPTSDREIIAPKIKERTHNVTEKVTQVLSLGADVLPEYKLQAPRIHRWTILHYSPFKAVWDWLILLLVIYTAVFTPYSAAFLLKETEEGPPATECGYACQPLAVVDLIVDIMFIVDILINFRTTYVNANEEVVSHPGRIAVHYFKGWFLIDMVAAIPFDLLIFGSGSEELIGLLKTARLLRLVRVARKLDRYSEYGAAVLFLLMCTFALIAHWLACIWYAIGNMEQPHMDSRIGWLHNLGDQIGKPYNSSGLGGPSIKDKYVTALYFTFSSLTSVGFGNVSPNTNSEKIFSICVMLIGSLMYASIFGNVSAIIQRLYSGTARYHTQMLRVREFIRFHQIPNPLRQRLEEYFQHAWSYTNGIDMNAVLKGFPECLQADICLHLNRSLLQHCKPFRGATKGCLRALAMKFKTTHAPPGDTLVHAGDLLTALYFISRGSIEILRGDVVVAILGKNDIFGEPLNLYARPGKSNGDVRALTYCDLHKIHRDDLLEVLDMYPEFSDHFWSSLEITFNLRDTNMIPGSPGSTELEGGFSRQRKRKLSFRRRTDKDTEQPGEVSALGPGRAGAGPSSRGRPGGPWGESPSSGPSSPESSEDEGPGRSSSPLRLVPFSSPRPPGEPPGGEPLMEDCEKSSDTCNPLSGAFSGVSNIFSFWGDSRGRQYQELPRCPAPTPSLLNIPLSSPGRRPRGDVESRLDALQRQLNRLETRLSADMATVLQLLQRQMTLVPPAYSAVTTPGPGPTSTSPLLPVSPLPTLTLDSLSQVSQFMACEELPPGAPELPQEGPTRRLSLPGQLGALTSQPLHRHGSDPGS
Assay procedure: primary screen, population patch clamp on CHO cells stably expressing hERG; higher = less effect of the substance
The whole screen tested about 310,000 compounds, of which about 14,000 (4.5%) showed an effect of 50% or more. Effects have a minus sign here. The list comes from a sample in which strong results are over-represented; it also holds close analogues and randomly drawn compounds.
Measure: hERG current change (%, negative = inhibition) at 10uM

{"columns": ["Molecule", "Assay value"],
 "data": [
  ["O=C(CCC1CCCN(Cc2ccc3c(c2)OCCO3)C1)NCc1ccccc1F (stereo not shown)", "-24.2%"],
  ["O=C(CCC1CCCN(c2ncccn2)C1)NCc1ccc(F)c(F)c1 (stereo not shown)", "-40.8%"],
  ["COc1cc(CNCc2ccncc2)cc(Br)c1OCc1ccccc1F.Cl", "-43.3%"],
  ["Cl.Fc1ccccc1COc1ccc(Br)cc1CNCc1ccncc1", "-70.2%"],
  ["Cl.c1ccc(COc2ccccc2CNCc2cccnc2)cc1", "-8.89%"],
  ["O=C(CCC1CCCN(Cc2ccc3c(c2)CCO3)C1)NCc1ccc(F)c(F)c1 (stereo not shown)", "-63.7%"],
  ["O=C(CCC1CCCN(C(=O)c2ccncc2)C1)NCc1ccc(F)c(F)c1 (stereo not shown)", "-1.99%"],
  ["CC(C)C(O)(C#CCN1CCCCC1)C(C)C", "-1.16%"],
  ["CC(=O)Nc1ccc(C)cc1", "12.2%"],
  ["CC(=O)c1cccc(CN2CCCC(CCC(=O)NCc3ccccc3F)C2)c1 (stereo not shown)", "-48.5%"],
  ["CCOc1ccc(/C=N/N2C(=O)C(CC(=O)Nc3ccc(F)cc3F)SC2=NC)cc1OC (stereo not shown)", "3.82%"],
  ["CC(=O)c1cccc(CN2CCCC(CCC(=O)NCc3ccc(F)c(F)c3)C2)c1 (stereo not shown)", "-74.7%"],
  ["NS(=O)(=O)c1ccc(CCNC(=O)c2ccc(Cl)cc2[N+](=O)[O-])cc1", "16.7%"]
]}
